Target: human AChE (Homo sapiens, UniProt P22303)
Sequence (P22303 32-614): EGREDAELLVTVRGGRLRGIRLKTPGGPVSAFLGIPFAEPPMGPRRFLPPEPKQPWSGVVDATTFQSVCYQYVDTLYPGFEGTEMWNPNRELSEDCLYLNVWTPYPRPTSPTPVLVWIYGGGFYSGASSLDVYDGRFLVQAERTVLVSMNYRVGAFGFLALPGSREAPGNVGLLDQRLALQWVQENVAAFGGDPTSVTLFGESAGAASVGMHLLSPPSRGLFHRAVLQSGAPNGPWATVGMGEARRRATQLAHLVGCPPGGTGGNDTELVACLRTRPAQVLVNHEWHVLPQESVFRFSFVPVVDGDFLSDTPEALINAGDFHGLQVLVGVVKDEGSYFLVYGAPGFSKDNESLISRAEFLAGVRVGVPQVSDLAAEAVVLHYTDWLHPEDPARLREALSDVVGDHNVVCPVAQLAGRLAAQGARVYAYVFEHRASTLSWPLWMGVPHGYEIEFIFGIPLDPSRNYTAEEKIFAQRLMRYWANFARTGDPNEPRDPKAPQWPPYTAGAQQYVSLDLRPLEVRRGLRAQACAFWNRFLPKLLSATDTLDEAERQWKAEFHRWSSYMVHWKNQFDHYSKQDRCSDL
Test: coupled Ellman assay, second-order hydrolysis
Type: biochemical
Quantity: Ki (µM)
Answers are plain numbers, in µM.

QUERY: Look up and report measured Ki for this entry: Cc1ccc2c(c1)sc(-c1ccc(N(C)C)cc1)[n+]2C
RESULT: 1.33
